Assay Text: Pharmacokinetic: drug concentrations in plasma by LC-MS after subcutaneous administration
Condition Label: ICR, mouse, plasma, sc, 0.1 μg/kg, Plasma concentration 0.5 hr, ICR mice; buprenorphine 0.1 μg/kg s.c.; individual samples
Measured Quantity: concentration at 0.5 h

What value of measured concentration at 0.5 h is listed for CO[C@]12CC[C@@]3(C[C@@H]1[C@](C)(O)C(C)(C)C)[C@H]1Cc4ccc(O)c5c4[C@@]3(CCN1CC1CC1)[C@H]2O5 [buprenorphine] ?
9.98 pg/mL

====

Assay Text: Pharmacokinetic: drug concentrations in plasma by LC-MS after subcutaneous administration
Condition Label: ICR, mouse, plasma, sc, 0.1 μg/kg, Plasma concentration 1 hr, ICR mice; buprenorphine 0.1 μg/kg s.c.; individual samples
Measured Quantity: concentration at 1 h (pg/mL)
Numbers only here, please. The scale is pg/mL.

Which value of concentration at 1 h has been reported for CO[C@]12CC[C@@]3(C[C@@H]1[C@](C)(O)C(C)(C)C)[C@H]1Cc4ccc(O)c5c4[C@@]3(CCN1CC1CC1)[C@H]2O5 in the records?
4.52

====

Assay Text: Pharmacokinetic: drug concentrations in plasma by LC-MS after subcutaneous administration
Condition Label: ICR, mouse, plasma, sc, 10 μg/kg, Plasma concentration 1 hr, ICR mice; buprenorphine 10 μg/kg s.c.; individual samples
Measured Quantity: concentration at 1 h (ng/mL)
State the answer as a number, implicitly in ng/mL.

Report concentration at 1 h for CO[C@]12CC[C@@]3(C[C@@H]1[C@](C)(O)C(C)(C)C)[C@H]1Cc4ccc(O)c5c4[C@@]3(CCN1CC1CC1)[C@H]2O5 please.
0.358

====

Assay Text: Pharmacokinetic: drug concentrations in plasma by LC-MS after subcutaneous administration
Condition Label: ICR, mouse, plasma, sc, 0.3 μg/kg, Plasma concentration 12 hr, ICR mice; buprenorphine 0.3 μg/kg s.c.; Mean
Measured Quantity: concentration at 12 h (ng/mL)
Give the quantity in ng/mL, number only.

Any idea what its concentration at 12 h is? The compound is CO[C@]12CC[C@@]3(C[C@@H]1[C@](C)(O)C(C)(C)C)[C@H]1Cc4ccc(O)c5c4[C@@]3(CCN1CC1CC1)[C@H]2O5 [buprenorphine]
0

====

Assay Text: Pharmacokinetic: drug concentrations in plasma by LC-MS after subcutaneous administration
Condition Label: ICR, mouse, plasma, sc, 3 μg/kg, Plasma concentration 1 hr, ICR mice; buprenorphine 3 μg/kg s.c.; Mean
Measured Quantity: concentration at 1 h (ng/mL)
Numeric answer only, unit ng/mL assumed.

# concentration at 1 h lookup, item CO[C@]12CC[C@@]3(C[C@@H]1[C@](C)(O)C(C)(C)C)[C@H]1Cc4ccc(O)c5c4[C@@]3(CCN1CC1CC1)[C@H]2O5 [buprenorphine]
0.126

====

Assay Text: Pharmacokinetic: drug concentrations in plasma by LC-MS after subcutaneous administration
Condition Label: ICR, mouse, plasma, sc, 0.3 ug/kg
Measured Quantity: Cmax

What value of Cmax has been recorded for this entry: CO[C@]12CC[C@@]3(C[C@@H]1[C@](C)(O)C(C)(C)C)[C@H]1Cc4ccc(O)c5c4[C@@]3(CCN1CC1CC1)[C@H]2O5 [buprenorphine]
0.0266 ng/mL

====

Assay Text: Pharmacokinetic: drug concentrations in plasma by LC-MS after subcutaneous administration
Condition Label: ICR, mouse, plasma, sc, 10 μg/kg, Plasma concentration 3 hr, ICR mice; buprenorphine 10 μg/kg s.c.; individual samples
Measured Quantity: concentration at 3 h (ng/mL)
Answer format: numeric, ng/mL implied, no suffix.

Find the recorded concentration at 3 h belonging to CO[C@]12CC[C@@]3(C[C@@H]1[C@](C)(O)C(C)(C)C)[C@H]1Cc4ccc(O)c5c4[C@@]3(CCN1CC1CC1)[C@H]2O5 [buprenorphine] and report it.
0.16

====

Assay Text: Pharmacokinetic: drug concentrations in plasma by LC-MS after subcutaneous administration
Condition Label: ICR, mouse, plasma, sc, 10 μg/kg, Plasma concentration 3 hr, ICR mice; buprenorphine 10 μg/kg s.c.; Mean
Measured Quantity: concentration at 3 h (ng/mL)
Enter your answer as a number in ng/mL; do not include the unit.

Data request, read-out concentration at 3 h, for CO[C@]12CC[C@@]3(C[C@@H]1[C@](C)(O)C(C)(C)C)[C@H]1Cc4ccc(O)c5c4[C@@]3(CCN1CC1CC1)[C@H]2O5
0.147
